Hey, just so you know, these numbers are from the supplement of paper PMC12855868.

B1: library; numbered along this chain (parent)
chain: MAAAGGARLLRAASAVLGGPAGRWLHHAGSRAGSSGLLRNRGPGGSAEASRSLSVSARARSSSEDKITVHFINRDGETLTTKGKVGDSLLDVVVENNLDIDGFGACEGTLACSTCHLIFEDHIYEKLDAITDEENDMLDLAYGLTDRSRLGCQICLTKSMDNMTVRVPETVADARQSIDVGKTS

variants of: B1; experiment: scaled log2 fold change in cell abundance, elesclomol vs control (0 = silent mean, 1 = nonsense mean) (scaled log2 ratio); higher = higher viability under elesclomol (loss of FDX1 cuproptosis function); conditions: with ABC1 FDX1 KO; elesclomol 5 nM; glucose 10 mM; 14 days;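 also: variant abundance is its share of total variant reads in each endpoint sample, from next-generation sequencing of the integrated ORF PCR-amplified out of genomic DNA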
Each item that follows carries a reported scaled log2 fold change.

[[record]]
variant_code = "H27I"
observed_value = -0.11

[[record]]
variant_code = "I123H"
observed_value = 0.292

[[record]]
variant_code = "A57C"
observed_value = 0.479

[[record]]
variant_code = "P168Y"
observed_value = 0.394

[[record]]
variant_code = "N96S"
observed_value = -0.155


Query: Tell me scaled log2 fold change reported for D99W
Response: -0.0217

Query: Tell me scaled log2 fold change reported for G45S
Response: 0.0305

Query: Tell me scaled log2 fold change reported for V55E
Response: -0.307

Query: Tell me scaled log2 fold change reported for Q176N
Response: -0.0287

Query: Tell me scaled log2 fold change reported for S177D
Response: -1.44

Query: Tell me scaled log2 fold change reported for L25G
Response: -0.623
